These entries and their values trace back to ChEMBL document CHEMBL2218924.

Parameter: residual activity. Scope: all listed entries.
- test_system: Ribosomal protein S6 kinase alpha-1 (Homo sapiens) (UniProt Q15418)
- Sequence (Q15418 whole entry): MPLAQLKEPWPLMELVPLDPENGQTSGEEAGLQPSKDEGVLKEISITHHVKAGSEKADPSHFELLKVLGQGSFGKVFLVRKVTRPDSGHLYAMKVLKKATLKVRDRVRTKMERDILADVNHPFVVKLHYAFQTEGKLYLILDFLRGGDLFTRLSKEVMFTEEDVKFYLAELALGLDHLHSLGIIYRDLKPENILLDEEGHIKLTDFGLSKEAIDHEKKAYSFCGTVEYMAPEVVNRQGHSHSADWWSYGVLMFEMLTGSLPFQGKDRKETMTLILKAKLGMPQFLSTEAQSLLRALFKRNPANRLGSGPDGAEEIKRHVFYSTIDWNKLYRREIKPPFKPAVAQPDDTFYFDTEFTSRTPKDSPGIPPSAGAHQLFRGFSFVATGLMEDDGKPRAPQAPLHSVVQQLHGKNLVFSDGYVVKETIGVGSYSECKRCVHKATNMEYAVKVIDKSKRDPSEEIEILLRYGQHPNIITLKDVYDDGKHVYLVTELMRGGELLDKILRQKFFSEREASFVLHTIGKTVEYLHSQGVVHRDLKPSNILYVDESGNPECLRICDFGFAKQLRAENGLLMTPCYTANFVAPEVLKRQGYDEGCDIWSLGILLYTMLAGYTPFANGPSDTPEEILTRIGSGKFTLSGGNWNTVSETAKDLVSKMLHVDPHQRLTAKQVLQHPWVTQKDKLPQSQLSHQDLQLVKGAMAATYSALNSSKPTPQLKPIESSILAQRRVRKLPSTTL
- experimental_setup: at 1 µM

- structure_smiles_string: "CCC(=O)Nc1ccc2ncnc(Nc3cccc(Br)c3)c2c1"
  residual activity: "119%"
- structure_smiles_string: "CC[n+]1c(/C=C/N(C)c2ccccc2)n(-c2ccccc2)c2ccc(-c3nc4ccccc4s3)cc21"
  residual activity: "114%"
- structure_smiles_string: "CCOc1cc2ncnc(Nc3cccc(Br)c3)c2cc1OCC"
  residual activity: "100%"
- structure_smiles_string: "O=C1c2ccccc2-[n+]2ccc3c([nH]c4ccccc43)c21"
  residual activity: "97%"
- structure_smiles_string: "Cc1nc(-c2ccccc2)c(-c2ccncc2)o1"
  residual activity: "88%"
- structure_smiles_string: "N#CCCc1ccc2c(c1)-c1[nH]c3ccc([N+](=O)[O-])cc3c1CC(=O)N2"
  residual activity: "45%"
- structure_smiles_string: "O=c1cc(-c2cccc3c2Sc2ccccc2S3)oc(N2CCOCC2)c1"
  residual activity: "87%"
- structure_smiles_string: "Oc1ccc(Nc2nc(-c3ccc(Cl)cc3)cs2)cc1"
  residual activity: "113%"
- structure_smiles_string: "O=[N+]([O-])c1ccc(-c2nc(-c3ccc(F)cc3)c(-c3ccncc3)[nH]2)cc1"
  residual activity: "101%"
- structure_smiles_string: "O=C1Nc2ccc(Br)cc2/C1=C\\c1cc2c([nH]1)CCCC2"
  residual activity: "84%"
- structure_smiles_string: "Oc1ccc(-c2nc(-c3ccc(F)cc3)c(-c3ccncc3)[nH]2)cc1"
  residual activity: "117%"
- structure_smiles_string: "COc1cc2ncnc(Nc3ccc(O)c(Br)c3)c2cc1OC"
  residual activity: "92%"
- structure_smiles_string: "COc1ccc(CNc2nc(N(CCO)CCO)nc3c2ncn3C(C)C)cc1"
  residual activity: "90%"
- structure_smiles_string: "CC#CC(=O)Nc1cc2c(Nc3ccc(F)c(Cl)c3)ncnc2cn1"
  residual activity: "113%"
- structure_smiles_string: "O=C1NC(=O)c2cc(Nc3ccc(F)cc3)c(Nc3ccc(F)cc3)cc21"
  residual activity: "87%"
- structure_smiles_string: "O=C(O)c1ccc2c3c1cccc3c(=O)n1c3ccccc3nc21"
  residual activity: "103%"
- structure_smiles_string: "O=C(Nc1cccc(Nc2nccc(Nc3cccc(C(F)(F)F)c3)n2)c1)C1CC1"
  residual activity: "78%"
- structure_smiles_string: "COc1ccc(S(=O)(=O)N(CCO)c2ccccc2CN(C)C/C=C/c2ccc(Cl)cc2)cc1"
  residual activity: "119%"
- structure_smiles_string: "CN(C)c1ccc(/C=C2\\C(=O)Nc3ccccc32)cc1"
  residual activity: "66%"
- structure_smiles_string: "Nc1cccc(-c2cc3c(Oc4cccc(O)c4)ncnc3[nH]2)c1"
  residual activity: "97%"
- structure_smiles_string: "Ic1cccc(CSc2nnc(-c3ccncc3)o2)c1"
  residual activity: "55%"
- structure_smiles_string: "Cn1cnc2cc3c(Nc4cccc(Br)c4)ncnc3cc21"
  residual activity: "97%"
- structure_smiles_string: "N#C/C(=C(\\N)Sc1ccc(N)cc1)c1ccccc1C(F)(F)F"
  residual activity: "40%"
